biological target: human AT1 receptor (Homo sapiens); construct: expressed in transfected cells; membrane fraction; test: AT1 receptor antagonistic activity: [125I]-angiotensin II binding assay on human AT1 receptor-expressing CHO-K1 cellular membrane fraction; details: 22.5 pM [125I]-angiotensin II, 1 hr room temperature
Sequence (P30556 whole entry): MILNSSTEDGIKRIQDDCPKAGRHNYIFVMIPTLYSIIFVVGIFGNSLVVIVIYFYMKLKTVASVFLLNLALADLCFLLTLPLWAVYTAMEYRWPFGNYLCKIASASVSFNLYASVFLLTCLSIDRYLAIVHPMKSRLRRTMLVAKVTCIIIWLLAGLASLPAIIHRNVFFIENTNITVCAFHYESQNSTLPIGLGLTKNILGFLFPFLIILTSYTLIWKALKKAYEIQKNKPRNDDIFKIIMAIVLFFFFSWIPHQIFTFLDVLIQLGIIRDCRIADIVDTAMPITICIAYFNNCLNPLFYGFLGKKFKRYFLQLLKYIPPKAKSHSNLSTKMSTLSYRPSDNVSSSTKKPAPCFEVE
parameter: IC50 (nM)

- compound: "CCCc1c(Cc2ccc(-c3ccccc3-c3noc(=O)[nH]3)cc2F)c(=O)n(C2CCCOC2)c2ncnn12 (centres unmarked) [Example 121]"
  IC50 (nM): 1.9
- compound: "CCCc1c(Cc2ccc(-c3ccccc3-c3noc(=O)[nH]3)cc2)c(=O)n(C2CCC3(CC2)OCCO3)c2nc(C)nn12 [Example 292]"
  IC50 (nM): 1.9
- compound: "CCCc1c(Cc2ccc(-c3ccccc3-c3noc(=O)[nH]3)cc2F)c(=O)n([C@H]2CC[C@H](OCC(C)(C)O)CC2)c2ccnn12 [Example 435]"
  IC50 (nM): 1.7
- compound: "CCCc1c(Cc2ccc(-c3ccccc3-c3noc(=O)[nH]3)cc2)c(=O)n([C@H]2CC[C@H](OC(C)C#N)CC2)c2ncnn12 (some centres unmarked) [Example 244]"
  IC50 (nM): 2.3
- compound: "CCCc1c(Cc2ccc(-c3ccccc3-c3noc(=O)[nH]3)cc2)c(=O)n(Cc2ccc(C(C)=O)cc2)c2ncnn12 [Example 28]"
  IC50 (nM): 3

A. CCCCc1c(Cc2ccc(-c3ccccc3-c3noc(=O)[nH]3)cc2)c(=O)n(C2CCOC(C)C2)c2ncnn12 (centres unmarked) [Example 160]
B. CCCc1c(Cc2ccc(-c3ccccc3-c3noc(=O)[nH]3)cc2)c(=O)n([C@H]2CC[C@@H](Oc3ccc(O)cc3)CC2)c2ncnn12 [Example 274]
C. CCCc1c(Cc2ccc(-c3ccccc3-c3noc(=O)[nH]3)cc2)c(=O)n(C2CCN(Cc3ccccc3)CC2)c2ncnn12 [Example 373]
Query: Sort the 3 compounds by IC50; largest first, smallest last. Reply: labels, ordered per the request.
Result: C, B, A
(C: 3.2 nM, B: 2.2 nM, A: 1.3 nM)

Origin of measurements: patent US8283353B2
